Tested on: Mycobacterium tuberculosis
TEST_DETAILS: Antimycobacterial activity against Mycobacterium tuberculosis H37Rv assessed as inhibition of bacterial growth by microdilution alamar blue broth assay
Format: functional, organism-based
OBSERVED_PROPERTY: MIC

> print(dat)
                                   molecule               tested.target  readout.value
1  CN1C[C@@H](c2ccccc2)[C@@]2(CSc3ccccc3C2=O)C12C(=O)c1ccccc1C2=O  Mycobacterium tuberculosis         100 µM
2  CN1CC(c2ccccc2Br)[C@@]2(CSc3ccccc3C2=O)C12C(=O)c1ccccc1C2=O (single isomer, unassigned)  Mycobacterium tuberculosis          50 µM
3  O=C1c2ccccc2C(=O)C12N1CSC[C@@H]1[C@@H](c1cccc(Br)c1)[C@@]21CSc2ccccc2C1=O  Mycobacterium tuberculosis          50 µM
4  CN1CC(c2ccccc2Cl)[C@@]2(CSc3ccccc3C2=O)C12C(=O)c1ccccc1C2=O (single isomer, unassigned)  Mycobacterium tuberculosis         100 µM
